Target system: human ENT1 (Homo sapiens, UniProt Q99808)
Construct: JAR cells expressing ENT1 were purchased from ATCC; host or cells: JAR cells
Sequence (Q99808 whole entry): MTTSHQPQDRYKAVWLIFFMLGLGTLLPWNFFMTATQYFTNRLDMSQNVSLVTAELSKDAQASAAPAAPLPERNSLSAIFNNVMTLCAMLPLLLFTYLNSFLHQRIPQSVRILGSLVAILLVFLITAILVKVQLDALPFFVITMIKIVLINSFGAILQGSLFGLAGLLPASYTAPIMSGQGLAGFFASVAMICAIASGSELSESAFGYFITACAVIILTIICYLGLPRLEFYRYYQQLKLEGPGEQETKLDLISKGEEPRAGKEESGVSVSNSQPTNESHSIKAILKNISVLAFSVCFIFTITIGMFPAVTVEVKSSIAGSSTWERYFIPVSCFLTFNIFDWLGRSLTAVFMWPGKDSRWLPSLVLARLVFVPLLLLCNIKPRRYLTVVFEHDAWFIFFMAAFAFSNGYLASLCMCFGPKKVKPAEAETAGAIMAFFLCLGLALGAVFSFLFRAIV
Measurement notes: ENT1 binding assay (competition with Sahenta-DY647 on JAR cells)
Test settings: competition with SAHENTA-DY647 binding; IC50 categorized; read-out: Binding Assay IC50
pIC50: −log10 of the molar value.
Parameter: pIC50

Answered examples (6):
>  <Molecule>
COCCCNc1nc2c(N3CCc4ccc(C#N)cc4C3)ncnc2n1[C@@H]1O[C@H](C)[C@@H](O)[C@H]1O [Compound 160]

>  <Value>
7.70 to 9.00

$$$$
>  <Molecule>
COCCCNc1nc2c(OCc3ccc(C#N)cc3)ncnc2n1[C@@H]1O[C@H](C)[C@@H](O)[C@H]1O [Compound 45]

>  <Value>
7.70 to 9.00

$$$$
>  <Molecule>
C[C@H]1O[C@@H](n2c(N[C@H]3C[C@](C)(O)C3)nc3c(OCc4ccc(C#N)cc4)ncnc32)[C@H](O)[C@@H]1O [Compound 120]

>  <Value>
> 9.00

$$$$
>  <Molecule>
C[C@H]1O[C@@H](n2cnc3c(C(=O)NCc4ccc5c(ccn5C)c4)ncnc32)[C@H](O)[C@@H]1O [Compound 351]

>  <Value>
< 6.30

$$$$
>  <Molecule>
C[C@H]1O[C@@H](n2c(NCc3ncn(C)n3)nc3c(OCc4ccc(C#N)cc4)ncnc32)[C@H](O)[C@@H]1O [Compound 69]

>  <Value>
6.30 to 7.70

$$$$
>  <Molecule>
C[C@H]1O[C@@H](n2cnc3c(SCc4ccc(C(F)(F)F)nc4)ncnc32)[C@H](O)[C@@H]1O [Compound 270]

>  <Value>
< 6.30

$$$$

// switching to the query molecule
Data request, read-out pIC50, for C[C@H]1O[C@@H](n2c(N[C@H]3CC[C@H](O)CC3)nc3c(N4CCc5ccccc5C4)ncnc32)[C@H](O)[C@@H]1O [Compound 171]
6.30 to 7.70
